# EC50 listing for each entry below
Test system: NQO1 specific enzyme activity in BEAS-2B cells
METHOD_NOTES: BEAS-2B NQO1 MTT assay
Format: cell-based
RUN_PARAMETERS: Homo sapiens, BEAS-2B, 48 h, BEAS-2B cells, 48 hours with compound, MTT readout; read-out: EC50 of NQO1 specific activity induction
Structures can show the parent of a compound that is named as a salt.

Answered examples (6):
- COMPOUND: "CCn1nnc2c(F)c([C@H](c3ccc(C)c(CN4Cc5ncccc5OC(C)(C)C4)c3)[C@@H](C)C(=O)O)ccc21"
  REPORTED_VALUE: "1 to 10 nM"
- COMPOUND: "CCC1CN(Cc2cc([C@@H](c3ccc4c(nnn4C)c3C)C(C)C(=O)O)ccc2C)Cc2ccccc2O1 (some centres unmarked)"
  REPORTED_VALUE: "10 to 100 nM"
- COMPOUND: "CCC1CN(Cc2cc(C(CC(=O)O)c3ccc4c(nnn4CC)c3C)ccc2C)Cc2ccccc2O1 (centres unmarked) [Example 69, Formic Acid Salt]"
  REPORTED_VALUE: "10 to 100 nM"
- COMPOUND: "CCC1CN(Cc2cc(C(CC(=O)O)c3ccc4c(nnn4C)c3C)ccc2C)Cc2cc(F)ccc2O1 (centres unmarked)"
  REPORTED_VALUE: "10 to 100 nM"
- COMPOUND: "Cc1ccc([C@H](CC(=O)O)c2ccc3c(nnn3C)c2C)cc1CN1Cc2cccc(F)c2OC(C)(C)C1"
  REPORTED_VALUE: "10 to 100 nM"
- COMPOUND: "Cc1ccc(C(c2ccc3c(nnn3C)c2C)C(C)(C)C(=O)O)cc1Cn1ccnc1CN1C2CCCC1CC2 (centres unmarked) [Example 156, Trifluoroacetic Acid Salt]"
  REPORTED_VALUE: "10 to 100 nM"

Entry `CCC1CCN(Cc2nccn2Cc2cc([C@@H](c3ccc4c(nnn4CC)c3C)C(C)(C)C(=O)O)ccc2C)CC1` : reported EC50 = ?
< 1 nM

Here is the next compound: `CCn1nnc2c(Cl)c([C@H](c3ccc(C)c(CN4Cc5cccnc5OC(C)(C)C4)c3)[C@@H](C)C(=O)O)ccc21`
10 to 100 nM

Cool, now Cc1ccc(C(CC(=O)O)c2ccc3c(nnn3C)c2C)cc1CN1CCCn2cncc2C1 (centres unmarked) [Example 92, Sodium salt]
1000 to 10000 nM

----------
# pEC50 listing for each entry below
Tested on: NQO1 specific enzyme activity in BEAS-2B cells
METHOD_NOTES: BEAS-2B NQO1 MTT assay
Format: cell-based
RUN_PARAMETERS: Homo sapiens, BEAS-2B, 48 h, BEAS-2B cells, 48 hours with compound, MTT readout; read-out: EC50 of NQO1 specific activity induction
pEC50: −log10 of the molar value. Where a name gives a salt, the structure may show the parent alone.

- COMPOUND: "Cc1ccc2c(c1)OC(C)(C)CN(Cc1cc([C@H](CC(=O)O)c3ccc4c(nnn4C)c3C)ccc1C)C2 [Example 180]"
  MEASURED_ON: "NQO1 specific enzyme activity in BEAS-2B cells"
  pEC50: "7.00 to 8.00"

# query: pEC50 of entry CC[C@@H]1CN(Cc2cc(C(c3ccc4c(nnn4C)c3C)C(C)(C)C(=O)O)ccc2C)Cc2cccnc2O1 (stereo partly shown) [Example 113]
6.00 to 7.00

Another compound: CC[C@@H]1CN(Cc2cc(C(CC(=O)O)c3ccc4c(nnn4C)c3C)ccc2C)Cc2cccc(F)c2O1 (stereo partly shown) [Example 80, formic acid salt]
7.00 to 8.00

// same read-out, input: CC[C@@H]1CN(Cc2cc(C(CC(=O)O)c3ccc4c(nnn4C)c3C)ccc2C)Cc2ccc(F)cc2O1 (stereo partly shown) [Example 75, Formic Acid Salt]
6.00 to 7.00

Consider next the compound Cc1c(C(CC(=O)O)c2ccc(Cl)c(CN3CCOc4ccccc4C3)c2)ccc2c1nnn2C (stereo not shown) [Example 99, Formic Acid Salt] in the same way.
5.00 to 6.00

# credit: patent US10604509B2
